# Test system: XF 498 CNS
# assay details: NCI tumour cell line growth inhibition, 48 h
readout label: TGI

| compound | test target | TGI |
| --- | --- | --- |
| CCCCNC(=NCc1ccccc1)NC#N | XF 498 CNS | > 100 µM |

Form field - read-out: TGI; system: XF 498 CNS; submitted item: CCOc1ccc(/C=C(\Cl)c2ccc(OC)cc2)cc1 > 100 µM

What is its TGI for XF 498 CNS? Entry: C#CCNC(=O)NCCCCC(NC(C)=O)C(=O)NCc1ccccc1 (stereo not given) > 100 µM

# value lookup — system XF 498 CNS, readout TGI, item CCCCCCCCCCCCCCCCc1c(C(=O)OC)nc(NN)[nH]c1=O > 50 µM

Record lookup: for XF 498 CNS, what TGI belongs to CC1(C)OCN(c2ccc(S(N)(=O)=O)cc2)Cn2c1nc1ccccc12 ? > 100 µM
